Target: δ opioid receptor (Rattus norvegicus)
Construct: Male Sprague-Dawley rats (300-350 g) from the Canadian Breeding Laboratories were decapitated and after removal of the cerebellum the brains were homogenized; from tissue; host or cells: rat brain (without cerebellum) membranes, male Sprague-Dawley
Sequence (P33533 whole entry): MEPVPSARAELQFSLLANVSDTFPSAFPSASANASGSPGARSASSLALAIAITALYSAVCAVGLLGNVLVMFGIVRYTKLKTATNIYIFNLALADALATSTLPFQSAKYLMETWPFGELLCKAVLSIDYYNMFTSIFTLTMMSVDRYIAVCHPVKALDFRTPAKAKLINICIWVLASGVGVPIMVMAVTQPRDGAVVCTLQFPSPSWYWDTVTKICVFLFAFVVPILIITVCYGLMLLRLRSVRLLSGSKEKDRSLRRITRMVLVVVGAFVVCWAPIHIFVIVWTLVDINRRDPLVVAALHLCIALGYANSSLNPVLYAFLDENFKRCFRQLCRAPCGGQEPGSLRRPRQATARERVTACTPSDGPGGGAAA
Assay: δ opioid receptor binding assay, displacement of δ-selective radioligand from rat brain membranes
Conditions: rat brain membranes; means of 3 determinations; read-out: Ki^.xi.
Peptide text beside a SMILES is read from it.
Property Name: Ki (nM)
Give the quantity in nM, number only.

Data request: In one line, give reported Ki of the entry N=C(N)NCCC[C@H](N)C(=O)N[C@@H](Cc1ccc(O)cc1)C(=O)N1Cc2ccccc2C[C@H]1C(=O)N[C@@H](Cc1ccccc1)C(=O)N[C@@H](Cc1ccccc1)C(N)=O [HArgTyrTicPhePheNH2, H-Arg-Tyr-Tic-Phe-Phe-NH2] (HELM PEPTIDE1{R.Y.[Tic].F.F.[am]}$$$$V2.0) .
Data returned: 4.79

Data request: In one line, give reported Ki of the entry CN(C[C@@H]1Cc2ccccc2CN1C(=O)[C@@H](N)Cc1ccc(O)cc1)[C@@H](Cc1ccccc1)C(=O)N[C@@H](Cc1ccccc1)C(=O)O [HTyrTic.psi.[CH2NCH3]PhePheOH, H-Tyr-Tic.PSI.[CH2 --NCH3 ]Phe-Phe-OH] .
Data returned: 0.842
